# protocol text: Quantitative High-Throughput drug screen in 47 multiple myeloma cell lines against the NCATS MIPE library collection: INA6_PLB cell viability assay (AID 1918965; note: nearly all actives have a fitted effect of over 55% in size; note: potency is the fitted concentration of half-maximal effect)
# measurement setup: INA6 myeloma viability, CellTiter-Glo ATP luminescence, 48 h; series mostly up to 45.8 µM
Records with an inconclusive call do not appear. Activity calls are given as the source filed them. Calls come from the whole dose curve; as a rule, active = well fitted cell-killing curve with a large enough effect; inconclusive = small, poorly fitted or top-dose-only effect, or effect the other way; inactive = no such curve, though single readings can be large or run the other way.
measured property: Potency

Given item O=S(=O)(O)CCSSCCS(=O)(=O)O , the value recorded as its Potency is inactive

Given item O=c1[nH]c(=O)n([C@H]2C[C@@H](O)[C@@H](CO)O2)cc1F , the value recorded as its Potency is 1.32 µM (active)

Given item C=CC(=O)N1CCc2ccc(-n3c(=O)ccc4cnc5ccc(-c6cnn(C)c6)cc5c43)cc21 , the value recorded as its Potency is 0.235 µM (active)

Given item COc1cc(C)c(Sc2cnc(NC(=O)c3ccc(CNC(C)C(C)(C)C)cc3)s2)cc1C(=O)N1CCN(C(C)=O)CC1 (configuration not stated) , the value recorded as its Potency is 14.8 µM (active)

Given item COc1cc(N2CCC(C(N)=O)CC2)ccc1Nc1nc(N)c(Cl)c(Nc2ccccc2S(=O)(=O)C(C)C)n1 , the value recorded as its Potency is 7.43 µM (active)

Given item CN(C)c1ccc(C(=O)NCCCCCCC(=O)NO)cc1 , the value recorded as its Potency is 0.166 µM (active)

Given item O=C(Nc1nnc(-c2ccco2)o1)c1cc(-c2ccccc2)nc2ccccc12 , the value recorded as its Potency is 16.6 µM (active)

Given item C=CC(=O)Nc1cc(NC(=O)c2ccc(C)c(NC(=O)c3ccno3)c2)cc(C(F)(F)F)c1 , the value recorded as its Potency is 16.6 µM (active)

Given item C#CCC(Cc1cnc2nc(N)nc(N)c2n1)c1ccc(C(=O)N[C@@H](CCC(=O)O)C(=O)O)cc1 (some centres not stated) , the value recorded as its Potency is 0.0935 µM (active)

Given item CC(=O)[C@]1(O)Cc2c(O)c3c(c(O)c2[C@@H](O[C@H]2C[C@H](N)[C@@H](O)[C@H](C)O2)C1)C(=O)c1ccccc1C3=O , the value recorded as its Potency is 0.0935 µM (active)

Please turn your attention to the following entry.
Given item COc1cc(O)c2c(c1)C1OC1C[C@H](O)[C@H](O)C(=O)C=CC[C@H](C)OC2=O (some centres not stated) , the value recorded as its Potency is 2.96 µM (active)
